Molecular target: monomeric streptavidin variant mSA2
Experiment: apparent Kd (Kd,app); fluorescent binding curve, labeled mSA2 in 50% blood serum, 4 h; quadratic fit
measured parameter: Kd (µM)
Please reply with the bare figure in µM and do not write the unit itself.

Example entries begin here.
3xSP77.6k thin film (3x rcSso7d.SA-PNIPAM conjugate, PNIPAM Mn 77.6 kDa) (designed binder, maleimide end-functionalized PNIPAM (Mn 77.6 kDa) on the N-terminal Cys; film lightly crosslinked with glutaraldehyde) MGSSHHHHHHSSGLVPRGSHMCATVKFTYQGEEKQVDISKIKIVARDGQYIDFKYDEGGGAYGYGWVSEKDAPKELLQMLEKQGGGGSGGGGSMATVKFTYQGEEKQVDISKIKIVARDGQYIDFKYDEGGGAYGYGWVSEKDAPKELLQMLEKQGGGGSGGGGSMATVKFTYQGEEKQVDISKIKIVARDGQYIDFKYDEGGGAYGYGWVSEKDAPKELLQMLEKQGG
35
3xSP30.3k thin film (3x rcSso7d.SA-PNIPAM conjugate, PNIPAM Mn 30.3 kDa) (designed binder, maleimide end-functionalized PNIPAM (Mn 30.3 kDa) on the N-terminal Cys; film lightly crosslinked with glutaraldehyde) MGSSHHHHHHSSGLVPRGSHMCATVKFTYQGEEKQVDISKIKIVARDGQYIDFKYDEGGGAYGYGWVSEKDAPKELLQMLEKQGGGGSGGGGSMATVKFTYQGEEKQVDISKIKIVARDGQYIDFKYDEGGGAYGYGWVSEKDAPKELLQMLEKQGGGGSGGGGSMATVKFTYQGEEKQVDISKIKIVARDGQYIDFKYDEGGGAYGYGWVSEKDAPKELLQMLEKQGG
20
3xSP9.6k thin film (3x rcSso7d.SA-PNIPAM conjugate, PNIPAM Mn 9.6 kDa) (designed binder, maleimide end-functionalized PNIPAM (Mn 9.6 kDa) on the N-terminal Cys; film lightly crosslinked with glutaraldehyde) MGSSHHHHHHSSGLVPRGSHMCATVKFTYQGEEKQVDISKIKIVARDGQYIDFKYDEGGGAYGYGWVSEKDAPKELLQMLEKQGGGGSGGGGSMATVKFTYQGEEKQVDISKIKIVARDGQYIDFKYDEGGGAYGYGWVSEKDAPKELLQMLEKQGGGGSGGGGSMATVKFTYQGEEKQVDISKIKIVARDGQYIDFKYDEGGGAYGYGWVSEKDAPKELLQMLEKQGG
12.2

# context switch: different binder, same Kd
Enquiry: Field request: Kd | item: rcSso7d.SA monolayer (designed binder, EDC/NHS-activated protein coupled to an amine-functionalized silicon wafer, also called monomeric rcSso7d.SA; surface-immobilized rcSso7d.SA) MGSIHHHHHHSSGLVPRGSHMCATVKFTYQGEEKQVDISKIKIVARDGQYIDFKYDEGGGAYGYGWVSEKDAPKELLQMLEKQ
Return: 62
